// provenance: the supplement of paper PMC12636033

Tested on: muMax20 (Max(13-93) K31hArg/K57hArg, M65Nle)
Measurement Notes: PBM 8-mer E-score (E-score (rank enrichment, -0.5 to 0.5)); higher = stronger preferential binding
Whole data set: some 33,000 sequences, median “E-score (rank enrichment, -0.5 to 0.5)” near -0.0068, cut for the highest 2% near 0.24. The sample holds the highest values, similar sequences and a random draw of the others, so the mix is not that of the screen.
Measurement Label: PBM 8-mer E-score

Worked cases, answers included:
1. CGCAACAA    0.257
2. GACAATAC    0.21

## Task Record request: PBM 8-mer E-score value, item "CGCAACAC"
## Result 0.0683
